experiment: chemical genetic growth profiling, strain panel (AID 1159580);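 also: tested at 20 µM; growth read once vehicle control cultures reached saturation at 30 °C; 1 = growth at the plate median or of vehicle wells; lower values mean less growth of the strain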; conditions: S. cerevisiae deletion strains, growth OD, locus YJL134W, strain LCB3, hits give low values
In all, about 5,500 compounds went through this assay and about 2,000 (36%) were called active. Not shown: some 18% with an inconclusive outcome. Some of the results follow.
Below, each entry is listed alongside its reported normalized growth.
// return a plain number; no unit text

# count of solved cases: 5
CC1(O)/C=C/C=C(\CO)C2CC(C)(C)C2(O)CC1 (stereo unspecified) :: 1.01
CC(C)=CCc1c(O)cc2oc(C)cc(=O)c2c1O :: 1
c1ccc(CC2=NCCN2)cc1 :: 0.969
CCC1(c2ccc(N)cc2)CCC(=O)NC1=O (stereo unspecified) :: 1
COc1ccc(C(=O)c2ccccc2)c(O)c1 :: 0.945

Consider the additional compound presented here.
Returns the measured normalized growth for the input compound. Input: NC[C@@H]1O[C@H](O[C@@H]2[C@@H](CO)OC(O[C@@H]3[C@@H](O)[C@H](N)C[C@H](N)[C@H]3OC3O[C@H](CN)[C@@H](O)[C@H](O)[C@H]3N)[C@@H]2O)[C@H](N)[C@@H](O)[C@@H]1O (stereo partly specified) 0.993
